Molecular target: Sodium-dependent noradrenaline transporter (Homo sapiens)
Sequence (P23975 whole entry): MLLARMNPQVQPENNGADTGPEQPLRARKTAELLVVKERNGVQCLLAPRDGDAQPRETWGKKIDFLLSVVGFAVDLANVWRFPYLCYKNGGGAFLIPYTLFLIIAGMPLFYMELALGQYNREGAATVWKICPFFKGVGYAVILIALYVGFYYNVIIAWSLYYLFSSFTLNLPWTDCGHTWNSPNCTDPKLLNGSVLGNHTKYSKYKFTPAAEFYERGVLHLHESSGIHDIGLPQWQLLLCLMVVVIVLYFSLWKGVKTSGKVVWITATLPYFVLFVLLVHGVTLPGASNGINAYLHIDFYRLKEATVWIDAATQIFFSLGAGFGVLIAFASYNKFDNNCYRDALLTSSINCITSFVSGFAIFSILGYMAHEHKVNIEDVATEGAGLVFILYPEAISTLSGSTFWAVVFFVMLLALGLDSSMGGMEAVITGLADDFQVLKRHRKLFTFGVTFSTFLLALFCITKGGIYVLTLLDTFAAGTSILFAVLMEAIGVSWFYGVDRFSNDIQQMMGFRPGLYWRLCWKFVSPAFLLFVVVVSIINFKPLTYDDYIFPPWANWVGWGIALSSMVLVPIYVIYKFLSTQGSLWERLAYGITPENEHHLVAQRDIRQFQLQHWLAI
Test: DRUGMATRIX: Norepinephrine Transporter radioligand binding (ligand: [125I] RTI-55)
Type: cell membranes, MDCK, Membrane
Conditions: Not Active = under 50% inhibition at 10 µM; read-out: IC50
propertyLabel: IC50

| molecule | result |
| --- | --- |
| CCOC(=O)C1=C(C)NC(C)=C(C(=O)OCC)C1c1ccccc1/C=C/C(=O)OC(C)(C)C | 5.73 µM |
| CN(CCOc1ccc(C[C@H](Nc2ccccc2C(=O)c2ccccc2)C(=O)O)cc1)c1ccccn1 | 40.3 µM |
| Clc1cc(Cl)c(OCC#CI)cc1Cl | 2.77 µM |

====

Target: cGMP-specific 3',5'-cyclic phosphodiesterase (Homo sapiens, UniProt O76074)
Test: DRUGMATRIX: Phosphodiesterase PDE5 enzyme inhibition (substrate: [3H]cGMP + cGMP)
Type: tissue-based, Platelet
Settings: platelet; Not Active = under 50% inhibition at 10 µM

| compound | IC50 |
| --- | --- |
| COc1ccc(Cl)cc1C(=O)NCCc1ccc(S(=O)(=O)NC(=O)NC2CCCCC2)cc1 [GLYBURIDE] | Not Active |
| CC(C)NCC(O)COc1ccc(CC(N)=O)cc1 (stereo not given) [ATENOLOL] | Not Active |
| COc1cc(NC(C)CCCN)c2ncccc2c1 (stereo not given) [PRIMAQUINE] | Not Active |
| CC(=O)Nc1ccc2c(c1)Cc1ccccc1-2 [2-ACETYLAMINOFLUORENE] | Not Active |
| C1CCN2C[C@@H]3C[C@@H](CN4CCCC[C@@H]34)[C@H]2C1 [SPARTEINE] | Not Active |

====

Target: Type-2 angiotensin II receptor (Homo sapiens); also: in other assays of this panel Not Active means under 50% inhibition at 10 µM
Sequence (P50052 whole entry): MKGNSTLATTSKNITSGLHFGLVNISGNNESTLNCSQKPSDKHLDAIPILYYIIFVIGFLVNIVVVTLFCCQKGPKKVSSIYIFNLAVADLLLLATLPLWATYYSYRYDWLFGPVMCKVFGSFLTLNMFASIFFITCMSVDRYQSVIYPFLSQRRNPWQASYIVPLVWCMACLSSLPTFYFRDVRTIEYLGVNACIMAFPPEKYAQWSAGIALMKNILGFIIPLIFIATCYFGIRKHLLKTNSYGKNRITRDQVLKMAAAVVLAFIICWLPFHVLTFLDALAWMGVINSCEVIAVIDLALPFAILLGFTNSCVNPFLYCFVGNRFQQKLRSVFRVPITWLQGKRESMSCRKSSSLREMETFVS
Format: cell-based
Settings: cho-k1

| molecule | IC50 |
| --- | --- |
| COc1cc(NC(C)CCCN)c2ncccc2c1 (stereo unspecified) | Not Active |
| CO[C@@]12[C@H](COC(N)=O)C3=C(C(=O)C(C)=C(N)C3=O)N1C[C@@H]1N[C@@H]12 | Not Active |
| C[C@]12CCC(=O)C[C@@H]1CC[C@@H]1[C@@H]2CC[C@]2(C)[C@@H](O)CC[C@@H]12 | Not Active |
| C#C[C@]1(O)CC[C@H]2[C@@H]3[C@H](C)CC4=C(CCC(=O)C4)[C@H]3CC[C@@]21C | Not Active |
| CCN1C[C@]2(COC)[C@H](O)C[C@H](OC)[C@@]34[C@@H]5C[C@@]6(O)[C@H](OC(=O)c7ccccc7)[C@@H]5[C@@](OC(C)=O)([C@@H]([C@H](OC)[C@H]23)[C@@H]14)[C@@H](O)[C@@H]6OC | Not Active |
| Nc1nc(N)c2nc(-c3ccccc3)c(N)nc2n1 | Not Active |

====

Target: UniProt P12822
Sequence (P12822 whole entry): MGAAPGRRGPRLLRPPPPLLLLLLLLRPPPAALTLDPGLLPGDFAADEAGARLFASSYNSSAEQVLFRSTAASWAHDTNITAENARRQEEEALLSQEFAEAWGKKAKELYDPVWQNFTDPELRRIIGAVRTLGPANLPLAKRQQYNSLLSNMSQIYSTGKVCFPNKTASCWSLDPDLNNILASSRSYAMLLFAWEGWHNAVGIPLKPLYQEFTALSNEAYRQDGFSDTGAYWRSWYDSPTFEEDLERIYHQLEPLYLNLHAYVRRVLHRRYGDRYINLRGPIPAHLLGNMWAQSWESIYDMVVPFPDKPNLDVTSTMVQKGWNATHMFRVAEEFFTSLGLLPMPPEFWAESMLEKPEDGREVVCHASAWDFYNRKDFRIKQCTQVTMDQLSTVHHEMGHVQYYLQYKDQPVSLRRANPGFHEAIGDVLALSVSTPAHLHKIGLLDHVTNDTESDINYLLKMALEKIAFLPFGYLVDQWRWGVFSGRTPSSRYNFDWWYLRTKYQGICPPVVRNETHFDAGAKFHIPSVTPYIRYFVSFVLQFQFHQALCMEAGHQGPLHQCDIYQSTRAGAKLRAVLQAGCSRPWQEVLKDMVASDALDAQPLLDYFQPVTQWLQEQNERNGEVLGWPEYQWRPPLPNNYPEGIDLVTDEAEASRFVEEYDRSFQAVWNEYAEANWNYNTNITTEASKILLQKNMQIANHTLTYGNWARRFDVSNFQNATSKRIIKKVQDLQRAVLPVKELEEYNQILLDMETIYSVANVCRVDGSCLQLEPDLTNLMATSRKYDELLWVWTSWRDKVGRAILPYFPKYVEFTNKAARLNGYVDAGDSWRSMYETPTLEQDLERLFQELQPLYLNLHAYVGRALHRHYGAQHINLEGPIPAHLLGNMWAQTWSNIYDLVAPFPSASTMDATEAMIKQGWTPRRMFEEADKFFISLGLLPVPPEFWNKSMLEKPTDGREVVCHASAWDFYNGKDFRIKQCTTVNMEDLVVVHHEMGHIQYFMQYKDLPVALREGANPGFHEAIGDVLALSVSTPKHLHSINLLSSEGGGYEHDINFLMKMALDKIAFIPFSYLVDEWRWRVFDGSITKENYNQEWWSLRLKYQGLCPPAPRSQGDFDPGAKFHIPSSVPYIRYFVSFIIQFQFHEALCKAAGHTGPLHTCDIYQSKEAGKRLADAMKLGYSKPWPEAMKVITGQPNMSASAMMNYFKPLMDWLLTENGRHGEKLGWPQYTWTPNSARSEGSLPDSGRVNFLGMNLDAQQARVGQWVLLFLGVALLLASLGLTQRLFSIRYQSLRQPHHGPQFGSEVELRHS
Experiment: biochemical
Format: tissue-based, Lung

| compound | IC50 |
| --- | --- |
| Oc1ncnc2[nH]ncc12 | Not Active |
| O=C(c1ccccc1)c1ccc2n1CCC2C(=O)O (stereo not given) | Not Active |
| Oc1ccc(/C=C/c2cc(O)cc(O)c2)cc1 | Not Active |
| Cc1cn([C@H]2C=C[C@@H](CO)O2)c(=O)[nH]c1=O | Not Active |
| Cc1cc2c(s1)Nc1ccccc1N=C2N1CCN(C)CC1 | Not Active |
| CC1(COc2ccc(CC3SC(=O)NC3=O)cc2)CCCCC1 (stereo not given) | Not Active |
| CNC[C@H](O)c1ccc(O)c(O)c1 [EPINEPHRINE] | Not Active |
| C[C@]12CC[C@@H](O)C[C@@H]1CC[C@@H]1[C@@H]2CC[C@]2(C)C(=O)CC[C@@H]12 | Not Active |
| C[C@]12CCC(=O)C[C@@H]1CC[C@@H]1[C@@H]2CC[C@]2(C)[C@@H](O)CC[C@@H]12 | Not Active |
| CCOC(=O)C1=C(C)NC(C)=C(C(=O)OCC)C1c1ccccc1/C=C/C(=O)OC(C)(C)C | Not Active |

Reference source: ChEMBL document CHEMBL1909046
